- test-target: T1, HER2 epitope peptide (extracellular juxtamembrane region) (human, UniProt P04626)
- T1 chain: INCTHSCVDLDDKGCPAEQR
- test-description: bead-bound peptide pull-down, HPLC detection
Listed binders paired with reported Kd
Return type: number; implicit unit nM.

[
  {
    "binder": "HB5-FITC-PL-Peptide probe (ssDNA, 5'-thiol-C6 conjugated via maleimide to …-PL-K(FITC)FK-Mal (PL = photocleavable o-nitrobenzyl linker)) DNA: AACCGCCCAAATCCCTAAGAGTCTGCACTTGTCATTTTGTATATGTATTTGGTTTTTGGCTCTCACAGACACACTACACACGCACA",
    "Kd [nM]": 67.4
  }
]

For HB5 (FITC-labeled) (ssDNA) DNA: AACCGCCCAAATCCCTAAGAGTCTGCACTTGTCATTTTGTATATGTATTTGGTTTTTGGCTCTCACAGACACACTACACACGCACA , what is its reported Kd? 34.7
